The reported numbers originate from patent US10472341B2.

Test system: CD4 T cells
test_name: CD69 expression on aCD3/aCD28 stimulated isolated human CD4 T cells (flow cytometry)
Format: cell-based
conditions_used: 24 h after TCR stimulation, read-out: Activity Class CD69 (CD4)
pEC50: −log10 of the molar value. Where a name gives a salt, the structure may show the parent alone.
A collection of molecules and their measured pEC50
property_label: pEC50

[
  {
    "molecule": "Cl.N[C@H]1CS(=O)(=O)c2cc(F)c(C(=O)NCc3ccc(F)cc3)cc2N(Cc2ccc(Cl)cc2)C1=O [Example 68, hydrochloride]",
    "readout_value": "> 5.80"
  },
  {
    "molecule": "CCCCNC(=O)c1cc2c(cc1F)S(=O)(=O)C[C@H](N)C(=O)N2Cc1ccc(Cl)cc1.Cl [Example 69, hydrochloride]",
    "readout_value": "> 5.80"
  },
  {
    "molecule": "Cl.N[C@H]1CS(=O)(=O)c2cc(F)c(C(=O)NC3CCC(F)(F)C3)cc2N(Cc2ccc(Cl)cc2)C1=O (stereo partly shown) [Example 105, hydrochloride]",
    "readout_value": "> 5.80"
  },
  {
    "molecule": "COc1ccc(CNC(=O)c2ccc3c(c2)N(Cc2ccc(OC)cc2)C(=O)[C@@H](N)CS3(=O)=O)cc1",
    "readout_value": "5.30 to 5.80"
  },
  {
    "molecule": "N[C@H]1CS(=O)(=O)c2cc(F)c(C(=O)NCC3CCOCC3)cc2N(Cc2ccc(F)cc2)C1=O [Example 139, hydrochloride]",
    "readout_value": "5.30 to 5.80"
  },
  {
    "molecule": "N[C@H]1CS(=O)(=O)c2cc(F)c(C(=O)NCCC3CCOCC3)cc2N(Cc2ccc(Cl)cc2)C1=O [Example 135, hydrochloride]",
    "readout_value": "5.30 to 5.80"
  },
  {
    "molecule": "N[C@H]1CS(=O)(=O)c2ccc(C(=O)NCC3CC(F)(F)C3)cc2N(Cc2ccc(Cl)cc2)C1=O",
    "readout_value": "> 5.80"
  }
]
